# ASSAY_METHOD_TEXT: yeast display, Sf9 membrane polyspecificity reagent, FACS + sequencing; frameworks hold sequencing errors
OBSERVABLE: polyreactivity (PSR sort gate)

[
  {
    "RESIDUE_CODES": "QVQLVESGGGLVQAGGSLRLSCAASGRIFAGYAMGWYRQAPGKERELVAAISDGGTTNYADSVKGRFTISRDNAKNTVYLQMNSLKPEDTAVYYCAKVAAESYRYGYWGQGTQVTVSS",
    "OBSERVABLE": "polyreactivity (PSR sort gate)",
    "RESULT": "low polyreactivity"
  },
  {
    "RESIDUE_CODES": "QVQLVESGGGLVQAGGSLRLSCAASGSTSNLYAMGWYIQAPGKERELVAAITSIDGGTYYADSVKGRFTISRDNAKNTVYLQMNSLKAEDTAVYYCNAEDRFFYWGGYDYWGQGTQVTVSS",
    "OBSERVABLE": "polyreactivity (PSR sort gate)",
    "RESULT": "low polyreactivity"
  }
]

----------
# ASSAY_METHOD_TEXT: yeast display, Sf9 membrane polyspecificity reagent, FACS + sequencing; frameworks hold sequencing errors
OBSERVABLE: polyreactivity (PSR sort gate)

Consider the reported polyreactivity (PSR sort gate) for these sequences:
[
  {
    "RESIDUE_CODES": "QVQLVESGGGLVQAGGSLRLSCAASGSNFRVYAMGWYSQAAGKERELVAAISRSGSITYYADSVKGRFTISRDNAKNTVYLQMNSLKPEDTAVYYCAARTYCRFTASTYYYWGQGTQVTVSS",
    "polyreactivity (PSR sort gate)": "high polyreactivity"
  },
  {
    "RESIDUE_CODES": "QDQLVESGGGLVQAGGSLRLICAASGNTLGYYAMVCYRQATGKERELVATISDDGTTYYADSVKGLFTISRDNAKNSVYLQMNSLKPEDTAVYYCATDGSAQYSMDYWGQGTQVTVSS",
    "polyreactivity (PSR sort gate)": "low polyreactivity"
  },
  {
    "RESIDUE_CODES": "QVQLVESGGGLVQAGGSLRLSCAASGITLYGYTMGWYRQAPGKERELVAGISRGGSTYYADSVKGRFTISRDNAKNSVYLEMNSLKPDVTAVYYCAAAGWYRGDYWGQGTQVTVSS",
    "polyreactivity (PSR sort gate)": "high polyreactivity"
  },
  {
    "RESIDUE_CODES": "QVQLVESGGGLVQAGGSLRLSCAASGFTFVRYTMGWYRKAPGKERELVAAITASGDRTYYADSVKGRFTISRDNAKNTVYLQMNSLKPEDTAVYYCAKEYWGVTPTYYYWGQGTQVTVSS",
    "polyreactivity (PSR sort gate)": "high polyreactivity"
  },
  {
    "RESIDUE_CODES": "QVQLVESGGGLVQAGGSLRLSCAASGNIFRPYTMGWYRQAPGKERELVARISSGGSTNYADSVKGRFTISRDNAKNTVNLQMNSLKPEDTAVYYCAKRYGTVHSRYGYWGQGTQVTVSS",
    "polyreactivity (PSR sort gate)": "high polyreactivity"
  },
  {
    "RESIDUE_CODES": "QVQLVESGGGLVQAGGSLRLSCAASGFIFSYYAMGWYRQAPGKERELVAAINWSGGSTYYADSVKGRFTISRDNAKNTVYLQMNSLKPEDTAVYYCAAYSSWHPYDYWGQGTQVTVSS",
    "polyreactivity (PSR sort gate)": "high polyreactivity"
  }
]

So what's the measured polyreactivity (PSR sort gate) for this one? `QVQLVESGGGLVQAGGSLRLSCAACGIIFSWYAMGWYRQAPGKERELVAAISSSGGTTFYADSVKGRFTISRDKAKNTVYLQMNSLKPEDTAVYYCAVVGPPYYTWRVWRPAYDYWGQGTQVTVSS` high polyreactivity

Please report the recorded polyreactivity (PSR sort gate) for `QVQLVESGGGLVQAGGSLRLSCAASGIILYVYGMGWYRQAPGKERELVATITWSDGGTYYADSVKGRFTISRDNAKNTVYLQMNSLKPEDTAVYYCNVVVVNGWVTTPGYDYWGQGTQVTVSS` . low polyreactivity

----------
# ASSAY_METHOD_TEXT: yeast display, Sf9 membrane polyspecificity reagent, FACS + sequencing; frameworks hold sequencing errors

[
  {
    "RESIDUE_CODES": "QDQLVESGGGLLQAGGSLRLSCAASGIIFYPYAMGWYRQAPGKERELVAAITTRGRTYYADSVKGRFTISRDNAKNTVYLQLNSLKPEDTAVYYCNARRYFSRDSSGYNYWGQGTQVTVSS",
    "polyreactivity (PSR sort gate)": "high polyreactivity"
  },
  {
    "RESIDUE_CODES": "QVQLVESGGGLVQAGGSLRLSCAASGFTIGSNVMGWYRQAPGKERELVAAISSRGGSTYYADSVKGRFTISRDNAMNTVYLQMNSLKPEDTAVYDCAADAYYRGGWGDYWGQGTQVTVSS",
    "polyreactivity (PSR sort gate)": "high polyreactivity"
  }
]

----------
# ASSAY_METHOD_TEXT: yeast display, Sf9 membrane polyspecificity reagent, FACS + sequencing; frameworks hold sequencing errors
OBSERVABLE: polyreactivity (PSR sort gate)

Examples from the recorded data:
[
  {
    "RESIDUE_CODES": "QVQLVESGGGLVQAGGSLRLSCAASGSIFIYYAMGWYRQAPGKEMELVAAISSSGGSTYYADSVKGRFTISRDNAKNTVYLQMNSLKPEDTAVYYCAAAYGGRLRYTAGYYWGQGTQVTVSS",
    "RESULT": "high polyreactivity"
  },
  {
    "RESIDUE_CODES": "QVQLVESGGGLVQAGGSLRLSCAASGFTFVEYAMGWYRQAPGKERELVASIRRSGGRTYYADSVKGRFTISRDNAKNTVYLQMNSLKPEDTAVYYCAKSVPRYYSKSGLAYEFDYWGQGTQVTVSS",
    "RESULT": "low polyreactivity"
  },
  {
    "RESIDUE_CODES": "QVQLVESGGGLVQAGGSLRLSCAASGRTVNAMGWYRQAPGKERELVAAINSGTSTYADSVKGRFTISRDNAKNTVYLQMNSLKPEDTAVYYCAKTYFWPFHGRFVGYDYWGQGTQVTVSS",
    "RESULT": "low polyreactivity"
  },
  {
    "RESIDUE_CODES": "QVQLEESGGGLVQAGGSLRLSCAASGSIFNYYAMGWYRQAPGKERELVAAITTSGGNTYYADSVKGRFTISRDNAKNTVYLQMNSLKPEDTAVYYCNVDARSSYDYWGQGTQVTVSS",
    "RESULT": "low polyreactivity"
  }
]

Please give the measured polyreactivity (PSR sort gate) for this sequence: `QVQLVESGGGLGQAGGSLRLSCAASGSTFEGYAMGWYRQAPGKERELVAAISSSGGRTYYADSVKGRFTISRDNAKNTVYLQMNSLKPEDTAVYYCAADVSTAAVRSDSWGQGTQVTVSS` low polyreactivity

----------
# ASSAY_METHOD_TEXT: yeast display, Sf9 membrane polyspecificity reagent, FACS + sequencing; frameworks hold sequencing errors
OBSERVABLE: polyreactivity (PSR sort gate)

[
  {
    "RESIDUE_CODES": "QVHLVESGGGLVQAGGSLRLSCAASGRTFYRNAMGWYRQAPGKERELVAAIRTRTGSTYYADSVKGRFTISRDNAKNTVYLQMNSLKPEDTAGYYCAALAWYPYYASWPVESDYWGQGTQVTVSS",
    "polyreactivity (PSR sort gate)": "high polyreactivity"
  },
  {
    "RESIDUE_CODES": "QVQLVESGGGLVQAGGSLRLSCAASGRTFTQNAMGWYRQAPAKERELVAAISKSGDRTYYADSVKGRFTISRDNAKNTVYLQMNSLKPEDTAVYYCAADTYVSYYWWQTEDDYWGQGTQVTVSS",
    "polyreactivity (PSR sort gate)": "high polyreactivity"
  },
  {
    "RESIDUE_CODES": "QVQLVESGGGLVQAGGSLRLSCAASGITFSFYAMGWYRQAPGKERELVATIDSGGSTNYADSVKGRFTISRDNAKNTVYLQMNSLKPEDTAVYYCAVVFHYSTIGGGYRPRMYYWGQGTQVTVSS",
    "polyreactivity (PSR sort gate)": "low polyreactivity"
  },
  {
    "RESIDUE_CODES": "QVQLVESGGGLVQAGGSLRLSCAASGLTFYLNAMGWYRQAPGKERELVAGISYTGGSTYYADSVKGRFTISRDNAKNTVYLQMNSLKPEDTAVYYCARDNFYYGVWDYGYWGQGTQVTVSS",
    "polyreactivity (PSR sort gate)": "low polyreactivity"
  }
]

// below: polyreactivity (PSR sort gate) requested for another sequence
State the recorded polyreactivity (PSR sort gate) for this entry: `QVQLVESGGGLVQAGGSLRLSCAASGSTFYLNTMGWYRQAPGKERELVASISRSGGTTYYADSVKGRFTISRDNAKNTVYLQMNSLKPEDTAVYYCAKRYYFTHAYSRTFYYWGQGTQVTVSS` high polyreactivity

All figures here come from the nanobody polyreactivity screen of Harvey et al. (2022).
